Quick reference: T1/2 of the listed items.
Test system: TrkB (Homo sapiens (Human), UniProt Q16620 32-430)
Sequence (Q16620 32-430 limits assumed): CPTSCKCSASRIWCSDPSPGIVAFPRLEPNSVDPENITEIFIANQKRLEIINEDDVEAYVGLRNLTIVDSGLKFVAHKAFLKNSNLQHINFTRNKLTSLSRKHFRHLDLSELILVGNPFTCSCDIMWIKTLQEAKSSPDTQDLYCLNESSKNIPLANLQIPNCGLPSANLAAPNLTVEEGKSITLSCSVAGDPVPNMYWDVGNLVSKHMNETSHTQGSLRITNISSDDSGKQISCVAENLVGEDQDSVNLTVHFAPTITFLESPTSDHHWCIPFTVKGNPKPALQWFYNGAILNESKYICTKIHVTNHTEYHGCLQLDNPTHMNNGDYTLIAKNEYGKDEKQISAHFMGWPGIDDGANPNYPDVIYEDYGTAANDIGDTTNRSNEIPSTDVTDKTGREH
Test method notes: koff of Fab at 25 C; T1/2=Log2/koff
Entry rule: numbers only, all in min.

Would you please look over these solved cases?
Binder	Obs value
16-D6 (Fab, V domains shown, Fab) VH: QVQLVQSGAEVKKPGASVKVSCKASGYTFTNYDIIWVRQAPGQGLEWMGYINPYNDGTKYNEKFKGRVTMTRDTSTSTVYMELSSLRSEDTAVYYCARLLKYRRFKYYAIDYWGQGTTVTVSS VL: DIQMTQSPSSLSASVGDRVTITCRASENVYSNLAWYQQKPGKAPKLLIYAASNLADGVPSRFSGSGSGTDFTFTISSLQPEDIATYYCQDFWYSPFTFGQGTKLEIK	1
1-B11 (Fab, V domains shown, Fab) VH: QVQLVQSGAEVKKPGASVKVSCKASGYTFTNYVILWVRQAPGQGLEWMGYINPYNDGTKYNEKFKGRVTMTRDTSTSTVYMELSSLRSEDTAVYYCARLLKYRRFSYYAIDYWGQGTTVTVSS VL: DIQMTQSPSSLSASVGDRVTITCRASENVYSNLAWYQQKPGKAPKLLIYAASNLQSGVPSRFSGSGSGTDFTFTISSLQPEDIATYYCQNFWYSPFTFGQGTKLEIK	0.72
8-H7 (Fab, V domains shown, Fab) VH: QVQLVQSGAEVKKPGASVKVSCKASGYTFTNYVILWVRQAPGQGLEWMGYINPYNDGTKYNEKFKGRVTMTRDTSTSTVYMELSSLRSEDTAVYYCARLLKYRRFSFYAIDYWGQGTTVTVSS VL: DIQMTQSPSSLSASVGDRVTITCRASENVYSNLAWYQQKPGKAPKLLIYAASNLQSGVPSRFSGSGSGTDFTFTISSLQPEDIATYYCQHFVYSPFTFGQGTKLEIK	1.18
1-E9 (Fab, V domains shown, Fab) VH: QVQLVQSGAEVKKPGASVKVSCKASGYTFTNYVILWVRQAPGQGLEWMGYINPYNDGTKYNEKFKGRVTMTRDTSTSTVYMELSSLRSEDTAVYYCARLLKYRRMSYYAIDYWGQGTTVTVSS VL: DIQMTQSPSSLSASVGDRVTITCRASENVYSNLAWYQQKPGKAPKLLIYAASNLQSGVPSRFSGSGSGTDFTFTISSLQPEDIATYYCQHFWYSPFTFGQGTKLEIK	1.04

Switching to the query record.
Consider the binder shown here: 4B12-4 (Fab, V domains shown, Fab) VH: QVQLVQSGAEVKKPGASVKVSCKASGYTFTNYDIIWVRQAPGQGLEWMGYINPYNARREYNEKFKGRVTMTRDTSTSTVYMELSSLRSEDTAVYYCARLLKYRRFRYYAIDYWGQGTTVTVSS VL: DIQMTQSPSSLSASVGDRVTITCRASEPVYSNVAWYQQKPGKAPKLLIYAASNLQSGVPSRFSGSGSGTDYTFTISSLQPEDIATYYCQHFWGSPFTFGQGTKLEIK What is its recorded T1/2? 11.4
